The measured values listed here are drawn from patent US12398120B2.

Molecular target: ADAMTS4 (Homo sapiens (Human), UniProt O75173)
Sequence (O75173 213-685): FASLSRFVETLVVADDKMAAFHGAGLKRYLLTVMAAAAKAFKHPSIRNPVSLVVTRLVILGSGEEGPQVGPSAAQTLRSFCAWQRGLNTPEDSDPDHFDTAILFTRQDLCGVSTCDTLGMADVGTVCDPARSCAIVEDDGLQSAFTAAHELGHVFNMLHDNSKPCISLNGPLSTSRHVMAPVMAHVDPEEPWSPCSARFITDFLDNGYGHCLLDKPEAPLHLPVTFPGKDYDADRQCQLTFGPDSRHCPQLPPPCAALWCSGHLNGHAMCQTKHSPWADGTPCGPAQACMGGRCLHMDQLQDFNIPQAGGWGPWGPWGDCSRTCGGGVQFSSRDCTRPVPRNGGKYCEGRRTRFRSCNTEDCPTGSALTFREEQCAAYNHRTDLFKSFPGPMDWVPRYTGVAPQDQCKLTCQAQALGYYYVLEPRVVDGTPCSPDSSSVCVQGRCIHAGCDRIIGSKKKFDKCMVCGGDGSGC
Test: Selectivity assay for ADAMTS-7 modulators: ADAMTS4 (FRET substrate)
Format: biochemical
Conditions: ADAMTS4 (R&D 4307-AD) 50 nM, substrate Dabcyl-EEVKAKVQPY-Glu(Edans)-NH2 1 μM, 120 min, 32° C.
pIC50: −log10 of the molar value.
The label depends only on pIC50: fulfilled if it is at least 5, not fulfilled if it is smaller.

1. Cn1nccc1C1(CNC(=O)c2ccc(Cl)cc2-c2ccc(Cl)cc2)NC(=O)NC1=O (single isomer, unassigned; ent-4) ... fulfilled
2. Cc1ccc(C(=O)NCC2(c3scnc3C)NC(=O)NC2=O)c(-c2ccc(C(F)(F)F)cc2)c1 (single isomer, unassigned; ent-5) ... fulfilled
3. O=C1NC(=O)C(CNC(=O)c2ccccc2-c2ccc(C(F)(F)F)cc2)(c2cncn2CC(F)(F)F)N1 (racemic) ... fulfilled
4. CC(C)(C)c1ccc(-c2cc(F)ccc2C(=O)NC[C@@]2(C3CC3)NC(=O)NC2=O)cc1 ... not fulfilled
5. Cc1ccc(C(=O)NCC2(C(C)C)NC(=O)NC2=O)c(-c2ccc(C(F)(F)F)cc2)c1 (stereo not shown) [Example 203] ... not fulfilled
6. Cc1conc1C1(CNC(=O)c2ccccc2-c2ccc(C(F)(F)F)cc2)NC(=O)NC1=O (stereo not shown) [Example 69] ... fulfilled

----------
Parameter IC50: see the listing below.
Biological target: ADAMTS4 (Homo sapiens (Human), UniProt O75173)
Assay: Selectivity assay for ADAMTS-7 modulators: ADAMTS4 (FRET substrate)
Assay type: biochemical
Conditions: ADAMTS4 (R&D 4307-AD) 50 nM, substrate Dabcyl-EEVKAKVQPY-Glu(Edans)-NH2 1 μM, 120 min, 32° C.
MEASUREMENT_LABEL: IC50

1) O=C1NC(=O)C(CNC(=O)c2ccc(F)c(F)c2-c2ccc(C(F)(F)F)cc2)(C23CC(F)(C2)C3)N1 (racemic) ... > 50 µM
2) O=C1NC(=O)[C@](CNC(=O)c2ccccc2-c2ccc(C3CC3(F)F)cc2)(C2CC2)N1 (stereo partly shown) ... 7.9 µM
3) Cc1cnn(C)c1C1(CNC(=O)c2ccccc2-c2ccc(C(F)(F)F)nc2)NC(=O)NC1=O (racemic) ... 19 µM
4) Cc1ccc(-c2ccccc2C(=O)NCC2(c3ccccn3)NC(=O)NC2=O)cc1 (racemic) ... 14 µM

----------
Target: ADAMTS4 (Homo sapiens (Human), UniProt O75173)
Assay: Selectivity assay for ADAMTS-7 modulators: ADAMTS4 (FRET substrate)
Format: biochemical
Settings: ADAMTS4 (R&D 4307-AD) 50 nM, substrate Dabcyl-EEVKAKVQPY-Glu(Edans)-NH2 1 μM, 120 min, 32° C.
Entries and their log10(IC50)
MEASUREMENT_LABEL: log10(IC50) (log10 of the value in µM)

1. Cc1cc(C2(CNC(=O)c3ccc(F)c(F)c3-c3ccc(C(F)(F)F)cc3)NC(=O)NC2=O)nn1C (racemic) ... 1.45
2. Cn1nccc1C1(CNC(=O)c2c(Cl)cccc2-c2ccc(Cl)cc2)NC(=O)NC1=O (single isomer, unassigned; ent-3) ... 0.56
3. Cc1scnc1C1(CNC(=O)c2ccccc2-c2ccc(C(F)(F)F)cc2)NC(=O)NC1=O (racemic) [Example 1] ... 0.81
4. O=C1NC(=O)C(CNC(=O)c2ccccc2-c2ccc(C(F)(F)F)cc2)(C2(Cl)CC2)N1 (racemic) [Example 279] ... 1.11
5. O=C1NC(=O)C(CNC(=O)c2ccc(F)cc2-c2ccc(C(F)(F)F)cc2)(c2ccnn2C(F)F)N1 (stereo not drawn) [Example 296] ... 0.98
6. Cc1ccc(-c2c(C)cccc2C(=O)NC[C@@]2(C3CC3)NC(=O)NC2=O)cc1 ... 0.51
7. Cn1cncc1C1(CNC(=O)c2ccc(F)cc2-c2ccc(C(F)(F)F)cc2)NC(=O)NC1=O (racemic) ... 0.93
8. Cc1sc(C(F)(F)F)nc1C1(CNC(=O)c2ccc(F)cc2-c2ccc(C(F)(F)F)cc2)NC(=O)NC1=O (racemic) ... 1.58
9. O=C1NC(=O)C(CNC(=O)c2ccccc2-c2ccc(C(F)(F)F)cc2)(c2ccnn2C(F)F)N1 (racemic) [Example 260] ... 1.23
10. Cc1ccc(-c2ccccc2C(=O)NCC2(c3nccs3)NC(=O)NC2=O)cc1 (stereo not drawn) [Example 201] ... 0.91
11. O=C1NC(=O)[C@](CNC(=O)c2ccc(C(F)(F)F)cc2-c2ccc(C3CC3)cc2)(C2CC2)N1 ... 1.28
12. O=C1NC(=O)[C@](CNC(=O)c2cccnc2-c2ccc(Cl)cc2)(C2CC2)N1 ... 1.70
13. O=C1NC(=O)C(CNC(=O)c2ccccc2-c2ccc(C(F)(F)F)cc2)(c2ccnn2CC(F)(F)F)N1 (racemic) [Example 6] ... 0.79

----------
Biological target: ADAMTS4 (Homo sapiens (Human), UniProt O75173)
Assay: Selectivity assay for ADAMTS-7 modulators: ADAMTS4 (FRET substrate)
Assay type: biochemical
Details: ADAMTS4 (R&D 4307-AD) 50 nM, substrate Dabcyl-EEVKAKVQPY-Glu(Edans)-NH2 1 μM, 120 min, 32° C.
Protocol: 1 μl test compound solution (dissolved in DMSO, at the corresponding concentration) or pure DMSO as a control was added per well. […] The increase of fluorescence intensity was measured in appropriate fluorescence plate reader (e.g. TECAN Ultra) using the respective wavelengths for excitation and emission. IC50 values were calculated from percentage of inhibition of enzyme activity as a function of test compound concentration.
MEASUREMENT_LABEL: log10(IC50) (log10 of the value in µM)

1. Cc1ccc(-c2cccc(Cl)c2C(=O)NC[C@@]2(C3CC3)NC(=O)NC2=O)cc1 [Example 222] ... 0.48
2. CC(C)(C)c1ccc(-c2ccccc2C(=O)NC[C@@]2(C3CC3)NC(=O)NC2=O)cc1 [Example 113] ... 1.08
3. Cn1nccc1C1(CNC(=O)c2ccc(F)cc2-c2ccc(Cl)cc2)NC(=O)NC1=O (racemic) [Example 179] ... 1.08
4. Cc1scnc1C1(CNC(=O)c2ccc(Cl)cc2-c2ccc(C(F)(F)F)cc2)NC(=O)NC1=O (single isomer, unassigned; ent-5) [Example 16] ... 0.54
5. Cn1ccnc1C1(CNC(=O)c2ccccc2-c2ccc(C(F)(F)F)nc2)NC(=O)NC1=O (stereo not drawn) [Example 158] ... 0.48
6. Cn1cncc1C1(CNC(=O)c2ccccc2-c2ccc(C(F)(F)F)cc2)NC(=O)NC1=O (racemic) [Example 283] ... 0.80
7. O=C1NC(=O)[C@](CNC(=O)c2ccccc2-c2ccc(Cl)cc2)(C2CC2)N1 [Example 220] ... 0.89
8. Cc1ccc(-c2ccccc2C(=O)NC[C@@]2(C3CC3)NC(=O)NC2=O)cc1F [Example 221] ... 0.91
9. O=C1NC(=O)C(CNC(=O)c2ccc(F)c(F)c2-c2ccc(C(F)(F)F)cc2)(C2(F)CC2)N1 (racemic) [Example 256] ... 1.45
10. O=C1NC(=O)C(CNC(=O)c2ccc(F)c(F)c2-c2ccc(C(F)(F)F)cc2)(c2ccnn2-c2ccccc2)N1 (racemic) [Example 315] ... 0.11
11. Cc1c(C2(CNC(=O)c3ccc(F)c(F)c3-c3ccc(C(F)(F)F)cc3)NC(=O)NC2=O)cnn1C (racemic) [Example 316] ... 1.08
12. CC(C)C1(CNC(=O)c2cccc(F)c2-c2ccc(C(F)(F)F)cc2)NC(=O)NC1=O (single isomer, unassigned; ent-6) [Example 210] ... 1.36
13. Cc1scnc1C1(CNC(=O)c2ccccc2-c2ccc(C(F)(F)F)nc2)NC(=O)NC1=O (stereo not drawn) [Example 173] ... 0.90

----------
Biological target: UniProtKB O75173
Assay: Selectivity assay for ADAMTS-7 modulators: ADAMTS4 (FRET substrate)
Type: biochemical
Conditions: ADAMTS4 (R&D 4307-AD) 50 nM, substrate Dabcyl-EEVKAKVQPY-Glu(Edans)-NH2 1 μM, 120 min, 32° C.
pIC50: −log10 of the molar value.
MEASUREMENT_LABEL: pIC50

1. Cc1ccc(C(=O)NCC2(c3nccn3C)NC(=O)NC2=O)c(-c2ccc(C3CC3(F)F)cc2)c1 (stereo not shown) ... 5.89
2. Cc1cc(C2(CNC(=O)c3ccc(F)cc3-c3ccc(C(F)(F)F)cc3)NC(=O)NC2=O)n(C)n1 (racemic) ... 4.82
3. O=C1NC(=O)C(CNC(=O)c2ccccc2-c2ccc(C(F)(F)F)cc2)(c2cscn2)N1 (stereo not shown) [Example 197] ... 4.89
4. O=C1NC(=O)C(CNC(=O)c2ccc(F)cc2-c2ccc(C(F)(F)F)cc2)(C2(F)CC2)N1 (racemic) [Example 252] ... 4.39
5. Cc1c(C2(CNC(=O)c3ccc(Cl)cc3-c3ccc(C(F)(F)F)cc3)NC(=O)NC2=O)cnn1C (single isomer, unassigned; ent-5) [Example 79] ... 5.68
6. CCC(C)C1(CNC(=O)c2ccccc2-c2ccc(C(F)(F)F)nc2)NC(=O)NC1=O (stereo not shown) ... 4.60
